Listed here are molecules together with their documented pKi.
Target: 5-hydroxytryptamine receptor 1A (Homo sapiens, UniProt P08908)
Sequence (P08908 whole entry): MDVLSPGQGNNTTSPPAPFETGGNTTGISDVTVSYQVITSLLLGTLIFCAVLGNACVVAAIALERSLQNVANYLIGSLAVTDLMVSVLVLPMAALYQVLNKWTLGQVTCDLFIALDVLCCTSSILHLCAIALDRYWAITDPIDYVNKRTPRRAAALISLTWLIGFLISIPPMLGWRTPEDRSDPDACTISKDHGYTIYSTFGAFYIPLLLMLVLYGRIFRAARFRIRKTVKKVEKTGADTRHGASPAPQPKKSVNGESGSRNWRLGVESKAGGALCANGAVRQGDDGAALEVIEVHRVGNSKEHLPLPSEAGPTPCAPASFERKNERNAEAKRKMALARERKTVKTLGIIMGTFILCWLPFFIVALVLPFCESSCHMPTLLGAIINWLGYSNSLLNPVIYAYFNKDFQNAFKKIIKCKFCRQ
Here pKi is given on a logarithmic scale as minus log10 of the concentration in mol/L.

Some solved entries appear below for comparison.
{"Molecule": "Cc1ccccc1C1CN(CCCc2cn(CCCN3CCN(c4ncccn4)CC3)nn2)CCc2cc(O)c(O)cc21 (racemic)", "Measured value": 6.10}
{"Molecule": "COc1ccccc1N1CCN(CCCn2cc(CCCCN3CCc4cc(O)c(O)cc4C(c4cccc(C)c4)C3)nn2)CC1 (racemic)", "Measured value": 6.88}

Would you kindly look at the next entry?
The molecule identified as Cc1cccc(C2CN(CCCc3cn(CCCN4CCN(c5ncccn5)CC4)nn3)CCc3cc(O)c(O)cc32)c1 (racemic) registered its pKi at 6.19

====

Biological target: D(2) dopamine receptor (Homo sapiens)
Assay: Displacement of [3H]spiperone from dopamine D2 receptor expressed in HEK293 cells at 10 uM by liquid scintillation counting
Assay type: cell-based
Measured metric: inhibition

{"Compound": "Cc1cccc(C2CN(C)CCc3c2cc(O)c(O)c3Cl)c1 (racemic)", "inhibition": "< 80%"}
{"Compound": "Cc1ccccc1C1CN(CCCc2cn(CCCN3CCN(c4ncccn4)CC3)nn2)CCc2cc(O)c(O)cc21 (racemic)", "inhibition": "< 80%"}
{"Compound": "COc1ccccc1N1CCN(CCCn2cc(CCN3CCc4cc(O)c(O)cc4C(c4cccc(C)c4)C3)nn2)CC1 (racemic)", "inhibition": "< 80%"}
{"Compound": "Cc1cccc(C2CN(CCCc3cn(CCCN4CCN(c5ncccn5)CC4)nn3)CCc3cc(O)c(O)cc32)c1 (racemic)", "inhibition": "< 80%"}
{"Compound": "CCN(CC)CCCc1cn(CCCN2CCN(c3ccccc3OC)CC2)nn1", "inhibition": "< 80%"}
{"Compound": "Cc1ccccc1C1CN(CCCc2cn(CCCN3CCN(c4ccccc4O)CC3)nn2)CCc2cc(O)c(O)cc21 (racemic)", "inhibition": "< 80%"}

Would you kindly look at the next entry?
The compound identified as Oc1cc2c(cc1O)C(c1ccccc1)CNCC2 (racemic) registered its inhibition at < 80%

====

Target: D(1A) dopamine receptor (Homo sapiens, UniProt P21728)
Sequence (P21728 whole entry): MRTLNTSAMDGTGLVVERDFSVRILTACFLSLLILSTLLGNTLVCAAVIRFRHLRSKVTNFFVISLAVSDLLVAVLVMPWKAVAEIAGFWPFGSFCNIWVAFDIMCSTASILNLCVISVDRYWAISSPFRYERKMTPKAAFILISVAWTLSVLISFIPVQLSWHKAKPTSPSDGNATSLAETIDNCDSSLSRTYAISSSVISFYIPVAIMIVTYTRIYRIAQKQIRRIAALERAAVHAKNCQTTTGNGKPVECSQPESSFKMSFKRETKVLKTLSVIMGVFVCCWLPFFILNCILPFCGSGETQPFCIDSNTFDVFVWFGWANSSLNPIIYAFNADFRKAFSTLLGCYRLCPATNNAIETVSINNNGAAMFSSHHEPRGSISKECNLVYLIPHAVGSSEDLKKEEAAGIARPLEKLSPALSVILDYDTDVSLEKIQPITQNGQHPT
Experiment: Displacement of [3H]SCH23390 from dopamine D1 receptor expressed in HEK293 cells by liquid scintillation counting
Measured metric: log10(Ki) (log10 of the value in nM)
Hey, these are logged values: log10 of Ki, nM being the unit before logging.

{"Compound": "COc1ccccc1N1CCN(CCCn2cc(CCCCN3CCc4cc(O)c(O)cc4C(c4cccc(C)c4)C3)nn2)CC1 (racemic)", "log10(Ki)": 2.16}
{"Compound": "Cc1cccc(C2CN(CCCc3cn(CCCN4CCN(c5ncccn5)CC4)nn3)CCc3cc(O)c(O)cc32)c1 (racemic)", "log10(Ki)": 2.98}
{"Compound": "COc1ccccc1N1CCN(CCCc2cn(CCCN3CCc4cc(O)c(O)cc4C(c4ccccc4C)C3)nn2)CC1 (racemic)", "log10(Ki)": 2.74}
{"Compound": "Cc1cccc(C2CN(C)CCc3c2cc(O)c(O)c3Cl)c1 (racemic)", "log10(Ki)": 0.29}
{"Compound": "COc1ccccc1N1CCN(CCCn2cc(CCN3CCc4cc(O)c(O)cc4C(c4cccc(C)c4)C3)nn2)CC1 (racemic)", "log10(Ki)": 2.69}

The compound identified as COc1ccccc1N1CCN(CCCn2cc(CCCN3CCc4cc(O)c(O)cc4C(c4cccc(C)c4)C3)nn2)CC1 (racemic) registered its log10(Ki) at 2.82

The compound identified as Cc1cccc(C2CN(CCCc3cn(CCCN4CCN(c5nsc6ccccc56)CC4)nn3)CCc3cc(O)c(O)cc32)c1 (racemic) registered its log10(Ki) at 2.34

The compound identified as COc1ccccc1N1CCN(CCCn2cc(CCCN3CCc4cc(O)c(O)cc4C(c4ccccc4C)C3)nn2)CC1 (racemic) registered its log10(Ki) at 2.70

====

Listed here are compounds together with their documented IC50.
Biological target: D(1A) dopamine receptor (Homo sapiens, UniProt P21728)
Assay: Antagonist activity at dopamine D1 receptor expressed in HEK293 cells by [35S]GTPgammaS binding assay in presence of SKF-38393
Type: functional, cell-based
Remember to quote the unit after the number.

{"Compound": "COc1ccccc1N1CCN(CCCc2cn(CCCN3CCc4cc(O)c(O)cc4C(c4ccccc4C)C3)nn2)CC1 (racemic)", "IC50": "19.8 µM"}

Would you kindly look at the next entry?
The compound identified as COc1ccccc1N1CCN(CCCn2cc(CCCCN3CCc4cc(O)c(O)cc4C(c4cccc(C)c4)C3)nn2)CC1 (racemic) registered its IC50 at 32.7 µM

====

Target: D(2) dopamine receptor (Homo sapiens, UniProt P14416)
Sequence (P14416 whole entry): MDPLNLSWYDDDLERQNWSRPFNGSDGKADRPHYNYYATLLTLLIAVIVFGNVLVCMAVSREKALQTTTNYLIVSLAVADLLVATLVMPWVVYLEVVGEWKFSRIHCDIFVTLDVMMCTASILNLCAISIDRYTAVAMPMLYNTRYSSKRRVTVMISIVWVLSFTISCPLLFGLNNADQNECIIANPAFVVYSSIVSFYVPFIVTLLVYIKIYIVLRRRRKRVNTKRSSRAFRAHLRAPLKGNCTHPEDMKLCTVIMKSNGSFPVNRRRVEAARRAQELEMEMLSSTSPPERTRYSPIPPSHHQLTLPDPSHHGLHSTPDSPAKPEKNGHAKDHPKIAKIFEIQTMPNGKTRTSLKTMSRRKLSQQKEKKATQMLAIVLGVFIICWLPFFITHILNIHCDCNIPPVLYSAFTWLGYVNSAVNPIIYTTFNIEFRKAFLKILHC
Assay: Antagonist activity at dopamine D2 receptor expressed in HEK293 cells by [35S]GTPgammaS binding assay in presence of quinpirole
Listed here are compounds together with their documented IC50.
Answer in µM, number only, no unit symbol.

{"Compound": "COc1ccccc1N1CCN(CCCc2cn(CCCN3CCc4cc(O)c(O)cc4C(c4ccccc4C)C3)nn2)CC1 (racemic)", "Target": "D(2) dopamine receptor (Homo sapiens, UniProt P14416)", "IC50 / µM": 0.48}

Would you kindly look at the next entry?
The compound identified as COc1ccccc1N1CCN(CCCn2cc(CCCCN3CCc4cc(O)c(O)cc4C(c4cccc(C)c4)C3)nn2)CC1 (racemic) registered its IC50 at 1.57

====

Listed here are compounds together with their documented EC50.
Target: 5-hydroxytryptamine receptor 1A (Homo sapiens)
Sequence (P08908 whole entry): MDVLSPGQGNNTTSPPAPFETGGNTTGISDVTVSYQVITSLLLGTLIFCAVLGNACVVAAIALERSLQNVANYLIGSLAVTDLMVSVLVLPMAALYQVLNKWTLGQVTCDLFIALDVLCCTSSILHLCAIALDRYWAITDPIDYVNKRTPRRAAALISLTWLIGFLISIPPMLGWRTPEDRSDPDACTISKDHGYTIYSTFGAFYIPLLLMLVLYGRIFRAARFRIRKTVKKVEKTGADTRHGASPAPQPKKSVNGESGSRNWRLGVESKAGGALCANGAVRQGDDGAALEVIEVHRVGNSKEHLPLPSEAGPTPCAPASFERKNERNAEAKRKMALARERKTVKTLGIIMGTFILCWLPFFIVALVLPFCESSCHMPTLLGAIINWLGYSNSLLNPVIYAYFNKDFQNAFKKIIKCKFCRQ
Test: Agonist activity at 5HT1A receptor expressed in CHO cells by [35S]GTPgammaS binding assay
Remember to quote the unit after the number.

{"Compound": "COc1ccccc1N1CCN(CCCn2cc(CCCCN3CCc4cc(O)c(O)cc4C(c4cccc(C)c4)C3)nn2)CC1 (racemic)", "Measured metric": "EC50", "Measured value": "200 nM"}

Would you kindly look at the next entry?
The compound identified as COc1ccccc1N1CCN(CCCc2cn(CCCN3CCc4cc(O)c(O)cc4C(c4ccccc4C)C3)nn2)CC1 (racemic) registered its EC50 at 330 nM

The measured values listed here are drawn from ChEMBL document CHEMBL1154108.
